# Test system: Escherichia coli TOP10
# Protocol Description: shrunken log2 fold change of peptide-encoding DNA abundance (4.5 h post-induction vs induction); higher = less antimicrobial activity (less host growth inhibition)
# Condition Info: time post-induction: 4.5 h; library: site-saturation at positions 5, 18, 19, 20
Output schema: class label derived from shrunken log2 fold change. Mapping: 0 = under -0.2, 1 = from -0.2 up to 0.03, 2 = 0.03 and over

- Sequence Chain: "RRIRRRPPRLPRPRPRPRHHPRP"
  Group Label: 2
- Sequence Chain: "RRIRNRPPRLPRPRPRPVQMPRP"
  Group Label: 1
- Sequence Chain: "RRIRKRPPRLPRPRPRPHDTPRP"
  Group Label: 1
- Sequence Chain: "RRIRKRPPRLPRPRPRPNIKPRP"
  Group Label: 0
- Sequence Chain: "RRIRMRPPRLPRPRPRPETIPRP"
  Group Label: 2
- Sequence Chain: "RRIRGRPPRLPRPRPRPSNRPRP"
  Group Label: 2
- Sequence Chain: "RRIRLRPPRLPRPRPRPYRHPRP"
  Group Label: 0
- Sequence Chain: "RRIRLRPPRLPRPRPRPMNNPRP"
  Group Label: 0
- Sequence Chain: "RRIRCRPPRLPRPRPRPMWLPRP"
  Group Label: 0
- Sequence Chain: "RRIRRRPPRLPRPRPRPGDMPRP"
  Group Label: 2
- Sequence Chain: "RRIRNRPPRLPRPRPRPAKDPRP"
  Group Label: 1
- Sequence Chain: "RRIRCRPPRLPRPRPRPMVRPRP"
  Group Label: 2
- Sequence Chain: "RRIRLRPPRLPRPRPRPVVYPRP"
  Group Label: 1
- Sequence Chain: "RRIRYRPPRLPRPRPRPHTLPRP"
  Group Label: 0
- Sequence Chain: "RRIRIRPPRLPRPRPRPCHQPRP"
  Group Label: 0
- Sequence Chain: "RRIRFRPPRLPRPRPRPCMYPRP"
  Group Label: 0
- Sequence Chain: "RRIRDRPPRLPRPRPRPSDMPRP"
  Group Label: 0
- Sequence Chain: "RRIRQRPPRLPRPRPRPWFRPRP"
  Group Label: 1
- Sequence Chain: "RRIRERPPRLPRPRPRPMTSPRP"
  Group Label: 0
- Sequence Chain: "RRIRLRPPRLPRPRPRPISRPRP"
  Group Label: 2
- Sequence Chain: "RRIRTRPPRLPRPRPRPQTMPRP"
  Group Label: 1
- Sequence Chain: "RRIRQRPPRLPRPRPRPLTYPRP"
  Group Label: 1
- Sequence Chain: "RRIRWRPPRLPRPRPRPDVQPRP"
  Group Label: 2
- Sequence Chain: "RRIRWRPPRLPRPRPRPELGPRP"
  Group Label: 1
- Sequence Chain: "RRIRPRPPRLPRPRPRPNINPRP"
  Group Label: 0
- Sequence Chain: "RRIRVRPPRLPRPRPRPQAQPRP"
  Group Label: 2

* * *

# System: Escherichia coli TOP10;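 note: peptides expressed intracellularly from a pBAD plasmid library in pooled LB shake-flask culture, induced with 0.3% L-arabinose, DNA abundance read by NGS, three biological replicates, DESeq2 with apeglm shrinkage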
# Protocol Description: shrunken log2 fold change of peptide-encoding DNA abundance (4.5 h post-induction vs induction); higher = less antimicrobial activity (less host growth inhibition)
# Condition Info: time post-induction: 4.5 h; library: site-saturation at positions 5, 18, 19, 20
Outcome: criterion met for shrunken log2 fold change of at least 0.03; criterion not met for anything lower.

- Sequence Chain: "RRIRLRPPRLPRPRPRPHIVPRP"
  Group Label: "criterion not met"
- Sequence Chain: "RRIRYRPPRLPRPRPRPWKRPRP"
  Group Label: "criterion met"
- Sequence Chain: "RRIRSRPPRLPRPRPRPHPRPRP"
  Group Label: "criterion met"
- Sequence Chain: "RRIRLRPPRLPRPRPRPFHEPRP"
  Group Label: "criterion not met"
- Sequence Chain: "RRIRGRPPRLPRPRPRPFFRPRP"
  Group Label: "criterion met"
- Sequence Chain: "RRIRRRPPRLPRPRPRPIRYPRP"
  Group Label: "criterion met"
- Sequence Chain: "RRIRKRPPRLPRPRPRPQSLPRP"
  Group Label: "criterion not met"
- Sequence Chain: "RRIRNRPPRLPRPRPRPMMMPRP"
  Group Label: "criterion not met"
- Sequence Chain: "RRIRWRPPRLPRPRPRPAMYPRP"
  Group Label: "criterion not met"
- Sequence Chain: "RRIRERPPRLPRPRPRPWFWPRP"
  Group Label: "criterion met"
- Sequence Chain: "RRIRTRPPRLPRPRPRPSLYPRP"
  Group Label: "criterion not met"
- Sequence Chain: "RRIRERPPRLPRPRPRPHNHPRP"
  Group Label: "criterion not met"
- Sequence Chain: "RRIRHRPPRLPRPRPRPVIVPRP"
  Group Label: "criterion not met"
- Sequence Chain: "RRIRVRPPRLPRPRPRPECPPRP"
  Group Label: "criterion met"
- Sequence Chain: "RRIRVRPPRLPRPRPRPHYSPRP"
  Group Label: "criterion not met"
- Sequence Chain: "RRIRVRPPRLPRPRPRPMCVPRP"
  Group Label: "criterion met"
- Sequence Chain: "RRIRHRPPRLPRPRPRPVDEPRP"
  Group Label: "criterion met"
- Sequence Chain: "RRIRNRPPRLPRPRPRPDHLPRP"
  Group Label: "criterion not met"
- Sequence Chain: "RRIRSRPPRLPRPRPRPQNEPRP"
  Group Label: "criterion not met"
- Sequence Chain: "RRIRYRPPRLPRPRPRPNVKPRP"
  Group Label: "criterion not met"
- Sequence Chain: "RRIRIRPPRLPRPRPRPIQGPRP"
  Group Label: "criterion not met"
- Sequence Chain: "RRIRERPPRLPRPRPRPPVAPRP"
  Group Label: "criterion met"
- Sequence Chain: "RRIRNRPPRLPRPRPRPVIFPRP"
  Group Label: "criterion not met"
- Sequence Chain: "RRIRQRPPRLPRPRPRPKTFPRP"
  Group Label: "criterion not met"
- Sequence Chain: "RRIRDRPPRLPRPRPRPVIKPRP"
  Group Label: "criterion not met"
- Sequence Chain: "RRIRSRPPRLPRPRPRPTPCPRP"
  Group Label: "criterion met"
- Sequence Chain: "RRIRERPPRLPRPRPRPEVKPRP"
  Group Label: "criterion not met"
- Sequence Chain: "RRIRWRPPRLPRPRPRPRCLPRP"
  Group Label: "criterion met"
- Sequence Chain: "RRIRTRPPRLPRPRPRPCPEPRP"
  Group Label: "criterion not met"
- Sequence Chain: "RRIRVRPPRLPRPRPRPDIQPRP"
  Group Label: "criterion met"
- Sequence Chain: "RRIRTRPPRLPRPRPRPQPVPRP"
  Group Label: "criterion not met"
- Sequence Chain: "RRIRYRPPRLPRPRPRPFAKPRP"
  Group Label: "criterion not met"
- Sequence Chain: "RRIRLRPPRLPRPRPRPCLDPRP"
  Group Label: "criterion not met"
- Sequence Chain: "RRIRGRPPRLPRPRPRPFGPPRP"
  Group Label: "criterion met"
- Sequence Chain: "RRIRFRPPRLPRPRPRPECMPRP"
  Group Label: "criterion met"
- Sequence Chain: "RRIRARPPRLPRPRPRPMFDPRP"
  Group Label: "criterion not met"
- Sequence Chain: "RRIRARPPRLPRPRPRPHWTPRP"
  Group Label: "criterion not met"
- Sequence Chain: "RRIRTRPPRLPRPRPRPFGIPRP"
  Group Label: "criterion not met"
- Sequence Chain: "RRIRGRPPRLPRPRPRPSGEPRP"
  Group Label: "criterion met"
- Sequence Chain: "RRIRSRPPRLPRPRPRPTTMPRP"
  Group Label: "criterion not met"
- Sequence Chain: "RRIRHRPPRLPRPRPRPLAAPRP"
  Group Label: "criterion met"
- Sequence Chain: "RRIRRRPPRLPRPRPRPFYKPRP"
  Group Label: "criterion not met"
- Sequence Chain: "RRIRNRPPRLPRPRPRPMHEPRP"
  Group Label: "criterion met"
- Sequence Chain: "RRIRNRPPRLPRPRPRPTFYPRP"
  Group Label: "criterion not met"
- Sequence Chain: "RRIRHRPPRLPRPRPRPFDEPRP"
  Group Label: "criterion not met"
- Sequence Chain: "RRIRGRPPRLPRPRPRPNCNPRP"
  Group Label: "criterion met"

Source of measurements: the supplement of paper PMC9112550
